Could you please report measured pIC50 for the items listed next?
System name: human GlyT1c (Homo sapiens (Human), UniProt P48067)
Sequence (P48067 whole entry): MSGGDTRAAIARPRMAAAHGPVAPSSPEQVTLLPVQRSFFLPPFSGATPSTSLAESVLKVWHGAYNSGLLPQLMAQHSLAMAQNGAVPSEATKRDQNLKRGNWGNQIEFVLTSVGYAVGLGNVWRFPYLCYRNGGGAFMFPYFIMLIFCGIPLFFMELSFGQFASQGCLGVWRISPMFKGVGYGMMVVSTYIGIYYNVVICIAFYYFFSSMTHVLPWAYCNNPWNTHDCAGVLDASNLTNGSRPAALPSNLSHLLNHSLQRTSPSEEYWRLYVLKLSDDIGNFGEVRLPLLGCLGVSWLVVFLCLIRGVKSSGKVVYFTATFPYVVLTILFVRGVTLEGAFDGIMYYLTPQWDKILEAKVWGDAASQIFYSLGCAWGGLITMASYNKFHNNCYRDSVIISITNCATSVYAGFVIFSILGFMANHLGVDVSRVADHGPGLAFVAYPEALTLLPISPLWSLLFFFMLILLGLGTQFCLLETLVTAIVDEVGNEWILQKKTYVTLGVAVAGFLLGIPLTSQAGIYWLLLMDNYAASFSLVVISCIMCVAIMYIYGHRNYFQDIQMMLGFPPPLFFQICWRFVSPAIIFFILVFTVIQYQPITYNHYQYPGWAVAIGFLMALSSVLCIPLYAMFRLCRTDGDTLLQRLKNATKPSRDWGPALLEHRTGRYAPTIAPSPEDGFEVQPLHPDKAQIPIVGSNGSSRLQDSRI
Protocol: [3H]-Glycine uptake into recombinant CHO cells expressing human GlyT1
Assay type: cell-based
Setup conditions: hGlyT1c_5_CHO cells, 200 nM [3H]-glycine
pIC50: −log10 of the molar value. Structures can show the parent of a compound that is named as a salt.

Exercise: # returns recorded pIC50 (system: human GlyT1c (Homo sapiens (Human), UniProt P48067)) for O=S(=O)(NCCOc1ccc2c(c1)C(C1(c3ccc(Cl)cc3)CCC1)NCC2)c1ccccc1Cl (stereo not shown) [Example 25, hydrochloride]
Solution: ≥ 6.00

Exercise: Note, next up: CCCS(=O)(=O)NCCOc1ccc2c(c1)C(C1(c3ccc(F)cc3)CCC1)N(N=O)CC2 (stereo not shown)
Solution: ≥ 5.00

Exercise: Note, next up: CCN(CC)S(=O)(=O)NCCOc1ccc2c(c1)C(C1(c3ccc(Cl)cc3)CCC1)NCC2(C)C (stereo not shown) [Example 69, hydrochloride]
Solution: ≥ 6.00

Exercise: Note, next up: Cn1cnc(S(=O)(=O)NCCOc2ccc3c(c2)C(C2(c4ccc(Cl)cc4)CCC2)NCC3)c1 (stereo not shown)
Solution: ≥ 7.00

Exercise: Note, next up: Cc1nn(C)cc1S(=O)(=O)NCCOc1ccc2c(c1)C(C1(c3ccc(Cl)cc3)CCC1)NCC2 (stereo not shown) [Example 35, hydrochloride]
Solution: ≥ 6.00

Exercise: Note, next up: O=S(=O)(NCCOc1ccc2c(c1)C(C1(c3ccc(Cl)cc3)CCC1)NCC2)c1c[nH]cn1 (stereo not shown) [Example 57, hydrochloride]
Solution: ≥ 7.00

Exercise: Note, next up: CCCS(=O)(=O)NCCOc1ccc2c(c1)C(C1(c3ccc(F)cc3)CCC1)N(C(=O)C(F)(F)F)CC2 (stereo not shown)
Solution: ≥ 4.00

Exercise: Note, next up: CCCS(=O)(=O)NCCOc1ccc2c(c1)C(C1(c3cccc(Cl)c3)CCC1)NCC2 (stereo not shown)
Solution: ≥ 7.00

Exercise: Note, next up: CC(C)(C)OC(=O)NCCNS(=O)(=O)CCCOc1ccc2c(c1)C(C1(c3ccc(Cl)cc3)CCC1)NCC2 (stereo not shown)
Solution: ≥ 5.00

Exercise: Note, next up: CCCS(=O)(=O)N1CCN(c2cc3c(cc2OC)C(C2(c4ccc(Cl)cc4)CCC2)N(S(=O)(=O)CCC)CC3)CC1 (stereo not shown)
Solution: ≥ 4.00

###

System name: human GlyT1c (Homo sapiens (Human))
Protocol: [3H]-Glycine uptake into recombinant CHO cells expressing human GlyT1
Type: cell-based
Setup conditions: hGlyT1c_5_CHO cells, 200 nM [3H]-glycine
Structures can show the parent of a compound that is named as a salt.
Measure name: IC50

Exercise: Which IC50 is listed for CCN(CC)CCCS(=O)(=O)NCCOc1ccc2c(c1)C(C1(c3ccc(Cl)cc3)CCC1)NCC2 (stereo not drawn) [Example 194] ?
Solution: ≤ 10 µM

Exercise: Note, next up: CCCCS(=O)(=O)NCCOc1ccc2c(c1)C(C1(c3ccc(Cl)cc3)CCC1)N(C(=O)NCC)CC2 (stereo not drawn) [Example 39, hydrochloride]
Solution: ≤ 100 µM

Exercise: Note, next up: O=S(=O)(NCCOc1ccc2c(c1)C(C1(c3ccc(Cl)cc3)CCC1)NCC2)c1ccc(Cl)nc1 (stereo not drawn) [Example 29, hydrochloride]
Solution: ≤ 1 µM
